tested on: ONS-76; experiment: Cytotoxicity against human ONS-76 cells assessed as reduction in cell viability incubated for 72 hrs by MTT assay; assay type: functional, cell-based; details: ONS-76, 72 h
pIC50: −log10 of the molar value.
Below, each entry is listed with its recorded pIC50.

{"smilesCode": "COc1cc(NC(=O)c2cccc([N+](=O)[O-])c2)cc(OC)c1OC", "pIC50": "≤ 3.90"}
{"smilesCode": "COc1cc(NC(=O)Nc2cccc3ncccc23)cc(OC)c1OC", "pIC50": "≤ 3.90"}
{"smilesCode": "COc1cc(N(C)C(=O)c2cccc([N+](=O)[O-])c2)cc(OC)c1OC", "pIC50": "≤ 3.90"}
{"smilesCode": "COc1cc(NC(=O)c2ccc([N+](=O)[O-])cc2)cc(OC)c1OC", "pIC50": "≤ 3.90"}
{"smilesCode": "COc1cc(NC(=O)Nc2cccc3cc(O)ccc23)cc(OC)c1OC", "pIC50": "≤ 3.90"}
{"smilesCode": "COc1ccc(NC(=O)Nc2cc(OC)c(OC)c(OC)c2)cc1", "pIC50": 4.89}
{"smilesCode": "COc1cc(N(C)C(=O)N(C)c2ccc(F)cc2)cc(OC)c1OC", "pIC50": "≤ 3.90"}
{"smilesCode": "COc1cc(N(C)C(=O)N(C)c2ccc([N+](=O)[O-])cc2)cc(OC)c1OC", "pIC50": "≤ 3.90"}
{"smilesCode": "COc1cc(NC(=O)Nc2cccc(F)c2)cc(OC)c1OC", "pIC50": 4.18}
{"smilesCode": "COc1ccc(C(=O)Nc2cc(OC)c(OC)c(OC)c2)cc1", "pIC50": "≤ 3.90"}
{"smilesCode": "COc1cc(NC(=O)c2ccccc2)cc(OC)c1OC", "pIC50": "≤ 3.90"}
